Data provenance: ChEMBL document CHEMBL1811872

- METHOD SUMMARY: Cytotoxicity against mouse P815B cells […] by MTT assay
- Type: functional
- RECORDED CONDITIONS: read-out: LD50 (the source's name)
PROPERTY: CC50

Answered examples (5):
[[record]]
compound_string = "N#Cc1ccc2[nH]cc(/C=C/c3cccnc3)c2c1"
property = "CC50"
value = "> 200 µM"

[[record]]
compound_string = "Cn1cc(/C=C/c2cccnc2)c2ccc(F)cc21"
property = "CC50"
value = "> 200 µM"

[[record]]
compound_string = "O=C(O)C(=Cc1c[nH]c2cc(F)ccc12)C(=O)O"
property = "CC50"
value = "> 80 µM"

[[record]]
compound_string = "Fc1ccc2c(/C=C/c3cccc(Br)c3)c[nH]c2c1"
property = "CC50"
value = "> 200 µM"

[[record]]
compound_string = "C(#Cc1c[nH]c2ccccc12)c1cccnc1"
property = "CC50"
value = "200 µM"


Query :: Which CC50 reading was recorded for the molecule `Fc1ccc(-c2n[nH]cc2/C=C/c2cccnc2)cc1` ?
Result :: > 80 µM

Query :: Which CC50 reading was recorded for the molecule `Fc1cccc(/C=C/c2c[nH]c3cc(F)ccc23)c1` ?
Result :: 40 µM

Query :: Which CC50 reading was recorded for the molecule `Fc1ccc2c(/C=C/c3ccccn3)c[nH]c2c1` ?
Result :: 100 µM

Query :: Which CC50 reading was recorded for the molecule `N#Cc1c[nH]c2ccccc12` ?
Result :: > 80 µM

Query :: Which CC50 reading was recorded for the molecule `Fc1ccc2c(/C=C/c3ccncc3)c[nH]c2c1` ?
Result :: 200 µM
